We begin with a simple list: items and their reported IC50.
- Test System: Pim-1 (Homo sapiens)
- Construct: His6-labelled recombinant full-length human Pim-1, Pim-2 or Pim-3 protein; His6; made in house
- Sequence (P11309 whole entry): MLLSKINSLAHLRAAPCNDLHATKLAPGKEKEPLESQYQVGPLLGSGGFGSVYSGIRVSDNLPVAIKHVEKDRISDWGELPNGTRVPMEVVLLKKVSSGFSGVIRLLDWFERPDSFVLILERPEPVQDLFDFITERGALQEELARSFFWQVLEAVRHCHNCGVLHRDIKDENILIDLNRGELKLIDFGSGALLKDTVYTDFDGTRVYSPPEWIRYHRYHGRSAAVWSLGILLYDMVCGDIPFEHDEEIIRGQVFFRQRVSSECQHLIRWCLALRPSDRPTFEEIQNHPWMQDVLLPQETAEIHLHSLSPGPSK
- Experiment Description: TR-FRET assay, Pim-1 kinase (phosphorylation of Bad Ser112)
- Type: biochemical
- Study Conditions: TR-FRET; ATP 40 μM; read-out: IC50 Pim1

The examples below pair each entry with its known result.
>  <Compound>
Cc1n[nH]c(C)c1-c1cnc2[nH]c3cnc(-c4cccnc4)cc3c2c1

>  <IC50>
0.001 to 0.1 µM

$$$$
>  <Compound>
Fc1ccc(-c2cc3c(cn2)[nH]c2ncccc23)cn1

>  <IC50>
1 to 5 µM

$$$$
>  <Compound>
CN1CCC(N2CCN(c3c(F)cnc4[nH]c5cnc(-c6cccnc6)cc5c34)CC2)CC1

>  <IC50>
0.1 to 1 µM

$$$$
>  <Compound>
CCc1cc(N(CC)CC)ncc1-c1cnc2[nH]c3cnc(-c4cccnc4)cc3c2c1

>  <IC50>
0.001 to 0.1 µM

$$$$
>  <Compound>
CN(C)CCCOc1ccc(-c2c(F)cnc3[nH]c4cnc(-c5cccnc5)cc4c23)cc1

>  <IC50>
0.001 to 0.1 µM

$$$$

# get_value(readout= IC50, system= Pim-1 (Homo sapiens)) for OCc1cccc(-c2cnc3[nH]c4cnc(-c5cccnc5)cc4c3c2)c1
0.001 to 0.1 µM

Another compound to look at: Cc1cscc1-c1c(F)cnc2[nH]c3cnc(-c4cccnc4)cc3c12
1 to 5 µM

Another compound to look at: CN1CCN(C2CCN(c3c(F)cnc4[nH]c5cnc(-c6cccnc6)cc5c34)CC2)CC1
0.001 to 0.1 µM

Another compound to look at: OC(COc1ccc(-c2c(F)cnc3[nH]c4cnc(-c5cccnc5)cc4c23)cc1)CN1CCOCC1 (stereo not shown)
0.001 to 0.1 µM

Another compound to look at: COc1cnc2[nH]c3cnc(-c4cnn(CCCCCNC(=O)OC(C)(C)C)c4)cc3c2c1
0.1 to 1 µM

Another compound to look at: O=S(=O)(Nc1ccc(-c2c(F)cnc3[nH]c4cnc(-c5cccnc5)cc4c23)cc1)C1CC1
0.001 to 0.1 µM

Another compound to look at: Cn1cc(-c2c(F)cnc3[nH]c4cnc(-c5cccnc5)cc4c23)cn1
0.001 to 0.1 µM

Another compound to look at: CN(C)CCCOc1ccc(-c2cnc3[nH]c4cnc(-c5cccnc5)cc4c3c2)cn1
0.001 to 0.1 µM

Another compound to look at: CCN(CC)C(=O)c1cccc(-c2cnc3[nH]c4cnc(-c5cccnc5)cc4c3c2)c1
0.001 to 0.1 µM

Another compound to look at: Fc1cnc2[nH]c3cnc(-c4cccnc4)cc3c2c1-c1cn[nH]c1
0.001 to 0.1 µM

Another compound to look at: CC(C)(C)OC(=O)N1CCN(c2cccc(-c3cnc4[nH]c5cnc(-c6cccnc6)cc5c4c3)c2)CC1
0.1 to 1 µM

Another compound to look at: Fc1cnc2[nH]c3cnc(-c4cccnc4)cc3c2c1I
0.001 to 0.1 µM

Another compound to look at: CS(=O)(=O)c1cccc(-c2c(F)cnc3[nH]c4cnc(-c5cccnc5)cc4c23)c1
0.1 to 1 µM

Another compound to look at: CCOc1ncccc1-c1c(F)cnc2[nH]c3cnc(-c4cccnc4)cc3c12
0.1 to 1 µM

Another compound to look at: COCCOc1cnc2[nH]c3cnc(-c4cccnc4)cc3c2c1
0.001 to 0.1 µM

Another compound to look at: CN(C)c1cccc(-c2c(F)cnc3[nH]c4cnc(-c5cccnc5)cc4c23)c1
1 to 5 µM

Another compound to look at: CCN(CC)CCn1cc(-c2cnc3[nH]c4cnc(-c5cccnc5)cc4c3c2)cn1
0.001 to 0.1 µM

###

- Test System: Pim-3 (Homo sapiens, UniProt Q86V86)
- Construct: His6-labelled recombinant full-length human Pim-1, Pim-2 or Pim-3 protein; His6; made in house
- Experiment Description: TR-FRET assay, Pim-3 kinase (phosphorylation of Bad Ser112)
- Type: biochemical
- Study Conditions: TR-FRET; ATP 40 μM; read-out: IC50 Pim3
pIC50: −log10 of the molar value.
Measured Endpoint: pIC50

The examples below pair each entry with its known result.
>  <Compound Structure String>
CC(C)(O)C#Cc1c(F)cnc2[nH]c3cnc(-c4cccnc4)cc3c12

>  <Experimental Result>
7.00 to 9.00

$$$$
>  <Compound Structure String>
c1cncc(-c2cc3c(cn2)[nH]c2ncc(-c4cnn(CCN5CCOCC5)c4)cc23)c1

>  <Experimental Result>
7.00 to 9.00

$$$$
>  <Compound Structure String>
CN1CCC(N2CCN(c3c(F)cnc4[nH]c5cnc(-c6cccnc6)cc5c34)CC2)CC1

>  <Experimental Result>
6.00 to 7.00

$$$$

# get_value(readout= pIC50, system= Pim-3 (Homo sapiens, UniProt Q86V86)) for Oc1cccc(-c2c(F)cnc3[nH]c4cnc(-c5cccnc5)cc4c23)c1
6.00 to 7.00

Another molecule to look at: CCOc1ncccc1-c1c(F)cnc2[nH]c3cnc(-c4cccnc4)cc3c12
5.30 to 6.00

Another molecule to look at: CN(C)c1cccc(-c2c(F)cnc3[nH]c4cnc(-c5cccnc5)cc4c23)c1
5.30 to 6.00

Another molecule to look at: Cc1csc(-c2c(F)cnc3[nH]c4cnc(-c5cccnc5)cc4c23)c1
6.00 to 7.00

Another molecule to look at: CN(c1ccc(-c2c(F)cnc3[nH]c4cnc(-c5cccnc5)cc4c23)cc1)S(C)(=O)=O
7.00 to 9.00

###

- System: MOLM-13
- Experiment Description: Cell viability assay (CellTiter-Blue), MOLM-13
- Format: cell-based
- Study Conditions: Homo sapiens; MOLM-13 cells; cell proliferation/viability; read-out: IC50 MOLM-13 μM (myeloma)
We begin with a simple list: items and their reported IC50.

The examples below pair each entry with its known result.
>  <Compound Structure String>
COc1ccnc2[nH]c3cnc(-c4cccnc4)cc3c12

>  <IC50>
100 to 1000 nM

$$$$
>  <Compound Structure String>
CN(C)CCOc1ccc(-c2c(F)cnc3[nH]c4cnc(-c5cccnc5)cc4c23)cc1

>  <IC50>
100 to 1000 nM

$$$$

# get_value(readout= IC50, system= MOLM-13) for CS(=O)(=O)Nc1ccc(-c2c(F)cnc3[nH]c4cnc(-c5cccnc5)cc4c23)cc1
1 to 100 nM

###

We begin with a simple list: items and their reported IC50.
- Test System: Pim-2 (Homo sapiens)
- Construct: His6-labelled recombinant full-length human Pim-1, Pim-2 or Pim-3 protein; His6; made in house
- Sequence (Q9P1W9 whole entry): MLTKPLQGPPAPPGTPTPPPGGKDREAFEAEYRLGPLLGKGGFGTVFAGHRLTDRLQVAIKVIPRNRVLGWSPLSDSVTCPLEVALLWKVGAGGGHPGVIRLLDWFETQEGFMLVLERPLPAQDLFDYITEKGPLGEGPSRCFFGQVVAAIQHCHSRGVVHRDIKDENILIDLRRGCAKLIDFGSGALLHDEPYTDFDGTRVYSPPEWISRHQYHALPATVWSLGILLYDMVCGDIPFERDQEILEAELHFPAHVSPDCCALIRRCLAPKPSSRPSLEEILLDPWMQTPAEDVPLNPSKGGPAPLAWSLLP
- Experiment Description: TR-FRET assay, Pim-2 kinase (phosphorylation of Bad Ser112)
- Assay type: biochemical
- Study Conditions: TR-FRET; ATP 40 μM; read-out: IC50 Pim2

>  <Compound>
O=C(c1ccccc1)c1c(F)cnc2[nH]c3cnc(-c4cccnc4)cc3c12

>  <Test System>
Pim-2 (Homo sapiens)

>  <IC50>
> 5 µM

$$$$
>  <Compound>
COc1cnc2[nH]c3cnc(-c4cnn(CCC5CCCCN5C)c4)cc3c2c1 (stereo not drawn)

>  <Test System>
Pim-2 (Homo sapiens)

>  <IC50>
> 5 µM

$$$$

Please look at the following compound next.
May I ask what IC50 has been recorded for CC(=O)NCc1ccc(-c2c(F)cnc3[nH]c4cnc(-c5cccnc5)cc4c23)cc1 ?
1 to 5 µM

###

We begin with a simple list: items and their reported pIC50.
- Test System: Pim-3 (Homo sapiens, UniProt Q86V86)
- Construct: His6-labelled recombinant full-length human Pim-1, Pim-2 or Pim-3 protein; His6; made in house
- Experiment Description: TR-FRET assay, Pim-3 kinase (phosphorylation of Bad Ser112)
- Type: biochemical
- Study Conditions: TR-FRET; ATP 40 μM; read-out: IC50 Pim3
pIC50: −log10 of the molar value.

The examples below pair each entry with its known result.
>  <Compound Structure String>
CN(C)CCCOc1ccc(-c2cnc3[nH]c4cnc(-c5cccnc5)cc4c3c2)cn1

>  <Test System>
Pim-3 (Homo sapiens, UniProt Q86V86)

>  <Measured Endpoint>
pIC50

>  <Experimental Result>
7.00 to 9.00

$$$$
>  <Compound Structure String>
NCCCOc1ccc(-c2cnc3[nH]c4cnc(-c5cccnc5)cc4c3c2)cc1

>  <Test System>
Pim-3 (Homo sapiens, UniProt Q86V86)

>  <Measured Endpoint>
pIC50

>  <Experimental Result>
7.00 to 9.00

$$$$
>  <Compound Structure String>
CN1CCCN(c2c(F)cnc3[nH]c4cnc(-c5cccnc5)cc4c23)CC1

>  <Test System>
Pim-3 (Homo sapiens, UniProt Q86V86)

>  <Measured Endpoint>
pIC50

>  <Experimental Result>
6.00 to 7.00

$$$$
>  <Compound Structure String>
OCc1cnc2[nH]c3cnc(-c4cccnc4)cc3c2c1

>  <Test System>
Pim-3 (Homo sapiens, UniProt Q86V86)

>  <Measured Endpoint>
pIC50

>  <Experimental Result>
6.00 to 7.00

$$$$
>  <Compound Structure String>
COc1ncc(-c2c(F)cnc3[nH]c4cnc(-c5cccnc5)cc4c23)cn1

>  <Test System>
Pim-3 (Homo sapiens, UniProt Q86V86)

>  <Measured Endpoint>
pIC50

>  <Experimental Result>
5.30 to 6.00

$$$$

May I ask what pIC50 has been recorded for c1cncc(-c2cc3c(cn2)[nH]c2ncc(-c4cccc(N5CCNCC5)c4)cc23)c1 ?
7.00 to 9.00

Another compound to look at: CN(C(=O)c1c(F)cnc2[nH]c3cnc(-c4cccnc4)cc3c12)c1ccccc1
5.30 to 6.00
